Taken from patent US20260374754A1.

# TARGET_SYSTEM: human activated kallikrein enzyme (Homo sapiens, UniProt P03952)
# Sequence (P03952 391-638 limits assumed): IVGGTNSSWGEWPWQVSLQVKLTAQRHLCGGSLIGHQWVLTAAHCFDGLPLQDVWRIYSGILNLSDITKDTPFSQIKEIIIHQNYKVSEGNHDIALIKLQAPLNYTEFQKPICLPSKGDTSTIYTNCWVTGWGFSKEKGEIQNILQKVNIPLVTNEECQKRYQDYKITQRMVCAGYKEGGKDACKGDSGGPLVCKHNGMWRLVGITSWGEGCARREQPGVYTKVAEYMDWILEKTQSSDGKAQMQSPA
# Sequence (P03952 20-390 partner limits assumed): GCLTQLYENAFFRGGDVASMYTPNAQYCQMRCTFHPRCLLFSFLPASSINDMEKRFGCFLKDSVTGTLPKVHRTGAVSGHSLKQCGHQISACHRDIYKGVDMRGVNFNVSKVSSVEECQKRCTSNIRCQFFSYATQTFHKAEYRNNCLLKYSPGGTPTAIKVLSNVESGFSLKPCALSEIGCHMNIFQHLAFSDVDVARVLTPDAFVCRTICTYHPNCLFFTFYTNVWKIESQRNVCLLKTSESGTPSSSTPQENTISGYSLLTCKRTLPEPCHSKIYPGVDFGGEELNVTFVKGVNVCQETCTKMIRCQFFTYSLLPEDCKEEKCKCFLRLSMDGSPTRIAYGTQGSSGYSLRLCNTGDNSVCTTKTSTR
# TEST_PROTOCOL: Inhibition of human activated plasma kallikrein, fluorogenic PFR-AMC substrate, 500 pM enzyme format
# Type: biochemical
# DETAILS: 500 pM activated kallikrein; 300 μM PFR-AMC; 30 min preincubation; 10 min room temperature; pH 7.5; read-out: Primary Dose Response Assay: Average EC50
pEC50: −log10 of the molar value.
Reported pEC50 values follow for various molecules

{"columns": ["MOLECULE", "READOUT_NAME", "VAL"],
 "data": [
  ["Cc1cc2c(N)nccc2c(C)c1CNC(=O)c1cn(C(C)c2ccc3ncc(Cl)cc3c2)nn1 (stereo not shown)", "pEC50", "8.00 to 9.00"],
  ["Cc1cc2c(N)nccc2c(C)c1CNc1cc(NCc2cc3cc(C4CC4)cnc3s2)ncn1", "pEC50", "> 9.00"],
  ["Cc1cc2c(N)nccc2c(C)c1CNc1cc(NCc2ccc3ncccc3c2)c(C(N)=O)nn1", "pEC50", "7.00 to 8.00"],
  ["Cc1cc2c(N)nccc2c(C)c1CNc1cc(OCc2cn3cc(C4CC4)ccc3n2)nc(C(=O)O)n1", "pEC50", "> 9.00"],
  ["COCc1c(C(=O)NCc2c(C)cc3c(N)nccc3c2C)cnn1Cc1ccc(Cn2cccn2)cc1", "pEC50", "7.00 to 8.00"]
]}

# input molecule: Cc1cc2c(N)nccc2c(C)c1CNC(=O)c1cnn(Cc2ccc(Cc3nncn3C)cc2)c1 ; wanted: its pEC50
8.00 to 9.00

# input molecule: Cc1cc2c(N)nccc2c(C)c1CNc1cc(NCc2cn3cc(C(F)(F)F)ccc3n2)ncn1 ; wanted: its pEC50
> 9.00

# input molecule: Cc1cc2c(N)nccc2c(C)c1CNC(=O)c1cnn(Cc2ccc(Cc3nccs3)cc2)c1 ; wanted: its pEC50
> 9.00

# input molecule: CCCCc1cc(COc2cc(NCc3c(C)cc4c(N)nccc4c3C)ncn2)cc2cc(Cl)cnc12 ; wanted: its pEC50
6.00 to 7.00

# input molecule: Cc1cc2c(N)nccc2c(C)c1CNC(=O)c1cnn(Cc2cn3ccc(C4CC4)cc3n2)c1 ; wanted: its pEC50
> 9.00

# input molecule: Cc1cc2c(N)nccc2c(C)c1CNC(=O)c1cnn(Cc2cc3ccccc3s2)c1 ; wanted: its pEC50
8.00 to 9.00

# input molecule: Cc1cc2c(N)nccc2c(C)c1CNC(=O)c1cnn(Cc2ccc(CCn3cccn3)cc2)c1 ; wanted: its pEC50
8.00 to 9.00

# input molecule: Cc1ccccc1Cn1cc(C(=O)NCc2c(C)cc3c(N)nccc3c2C)cn1 ; wanted: its pEC50
6.00 to 7.00

# input molecule: Cc1cc2ccnc(NC(=O)OCc3ccccc3)c2c(C)c1CNc1cc(NCc2ccc(Cn3ccccc3=O)cc2)ncn1 ; wanted: its pEC50
8.00 to 9.00

# input molecule: Cc1cc2c(N)nccc2c(C)c1CNC(=O)c1cnn(Cc2ccncc2)c1 ; wanted: its pEC50
6.00 to 7.00

# input molecule: Cc1cc2c(N)nccc2c(C)c1CNC(=O)c1cnn(Cc2ccc(Cc3nnco3)cc2)c1 ; wanted: its pEC50
8.00 to 9.00

###

# TARGET_SYSTEM: human activated kallikrein enzyme (Homo sapiens, UniProt P03952)
# TEST_PROTOCOL: Inhibition of human activated plasma kallikrein, fluorogenic PFR-AMC substrate, 500 pM enzyme format
# Assay type: biochemical
# DETAILS: 500 pM activated kallikrein; 300 μM PFR-AMC; 30 min preincubation; 10 min room temperature; pH 7.5; read-out: Primary Dose Response Assay: Average EC50
READOUT_NAME: EC50

Example compounds with recorded EC50:
{"columns": ["COMPOUND", "EC50"],
 "data": [
  ["Cc1cc2c(N)nccc2c(C)c1CNC(=O)c1cnn(Cc2ccc(CC(=O)N3C[C@@H]4[C@@H](CO)[C@@H]4C3)cc2)c1 [Example 208]", "10 to 100 nM"],
  ["Cc1cc2c(N)nccc2c(C)c1CNC(=O)c1cnn(Cc2cccc(C(F)(F)F)c2)c1 [Example 97]", "10 to 100 nM"],
  ["Cc1ccc2nc(C(CO)n3cc(C(=O)NCc4c(C)cc5c(N)nccc5c4C)cn3)cn2c1 (centres unmarked) [Example 130]", "< 1 nM"],
  ["Cc1cc2c(N)nccc2c(C)c1CNc1cc(NCc2ccc3cnccc3c2)ncn1 [Example 320]", "1 to 10 nM"],
  ["Cc1cc2c(N)nccc2c(C)c1CNC(=O)c1cc(CN)nn1Cc1ccccc1 [Example 202]", "> 1000 nM"]
]}

# input compound: CCC(c1ccc(CNc2cc(NCc3c(C)cc4c(N)nccc4c3C)ncn2)cc1)n1cccn1 (centres unmarked) [Example I-484] ; wanted: its EC50
< 1 nM

# input compound: Cc1cc2c(N)nccc2c(C)c1CNC(=O)c1cnn(Cc2oc3ccccc3c2C)c1 [Example 47] ; wanted: its EC50
10 to 100 nM

# input compound: Cc1cc2c(N)nccc2c(C)c1CNc1cc(NCc2ccccc2)ncn1 [Example 341] ; wanted: its EC50
100 to 1000 nM
